Sourced from PubChem BioAssay (NCI)

Field: TGI. Provide a value for each of the molecules that follow.
- Tested on: SNB-19 CNS
- EXPERIMENT: NCI tumour cell line growth inhibition, 48 h
Expressed in µM, but write only the number.

Look at this molecule and give its reported TGI. O=C(Nc1cccc(C(F)(F)F)c1)c1ccc(NC2=C(Cl)C(=O)N(Cc3ccccc3)C2=O)cc1 40.5

Look at this molecule and give its reported TGI. COc1ccc(CNCCCN2C(=O)c3ccc4c5c(ccc(c35)C2=O)C(=O)N(CCCNCc2ccc(OC)c(OC)c2OC)C4=O)c(OC)c1OC 0.18

====

- Test system: RXF-631 renal
- EXPERIMENT: NCI tumour cell line growth inhibition, 48 h
ASSAY_READOUT: TGI

Look at this molecule and give its reported TGI. O=C(C=Nc1ccccc1S)c1ccco1 25.7 µM

Look at this molecule and give its reported TGI. COc1ccccc1NC(=O)C1=C(C)NC(C)=C(C(=O)Nc2ccccc2OC)C1c1ccccc1Cl > 100 µM

Look at this molecule and give its reported TGI. COc1ccc(-c2cc(=O)c3cc(Cl)ccc3[nH]2)cc1 > 100 µM

Look at this molecule and give its reported TGI. O=C(O)CCSC(=O)Nc1cccc2ccccc12 > 100 µM

Look at this molecule and give its reported TGI. CC12C3CC4C5CC(C(C53)[C@@H]1NCc1ccccc1)C42 (stereo partly drawn) > 100 µM

Look at this molecule and give its reported TGI. COc1ccc(-c2oc3c(OC)c(OC)c(OC)c(O)c3c(=O)c2OC)cc1O 35.8 µM

Look at this molecule and give its reported TGI. C[C@]12CCc3nonc3C1CC[C@@H]1C2CC[C@@]2(C)C1CC[C@@H]2O (stereo partly drawn) > 100 µM

Look at this molecule and give its reported TGI. CC(C)C1=CC2=CC[C@@H]3[C@](C)(CCC[C@@]3(C)C(=O)O)[C@H]2CC1 > 100 µM

Look at this molecule and give its reported TGI. CCOC(=O)CNC(=O)OCc1ccccc1 > 100 µM

Look at this molecule and give its reported TGI. Cc1cc2c(=O)c(C)n[nH]c2c(C#N)c1C > 100 µM

Look at this molecule and give its reported TGI. Brc1ccc(C=NC23CC4CC(CC(C4)C2)C3)cc1 > 100 µM

Look at this molecule and give its reported TGI. O=C(CC1(O)C(=O)Nc2ccc([N+](=O)[O-])cc21)c1ccncc1 (stereo not drawn) 54.7 µM

Look at this molecule and give its reported TGI. CN(C)CCN(C)C(=O)c1cccc2cccc(C(=O)O)c12 > 100 µM

Look at this molecule and give its reported TGI. COc1ccc([Se][Se]c2ccc(OC)cc2OC)c(OC)c1 59.2 µM

Look at this molecule and give its reported TGI. CC(C)CCCCCCCCCCCCC(=O)NCC(=O)NC1C(C)OC(Nc2ncnc3nc[nH]c23)C(O)C1O (stereo not drawn) 0.000583 µM

Look at this molecule and give its reported TGI. Cc1[nH]c2ccccc2c1C1=NO/C(=N\O)C(c2c(C)[nH]c3ccccc23)C1 (stereo not drawn) > 100 µM

Look at this molecule and give its reported TGI. N#Cc1ccc([N+](=O)[O-])cc1NC(N)=S > 100 µM

Look at this molecule and give its reported TGI. C[N+](C)(C)C1CC([N+](C)(C)C)C2c3ccccc3C21 (stereo not drawn) > 100 µM
